Taken from patent US20250250357A1.

- tested target: T1, human MSLN-R2-his protein (human, UniProt Q13421 391-486)
- T1 construct: Self-made in HEK293E cells; also called human MSLN-R2 protein; hMSLN-R2-his; not shown: His tag
- T1 sequence (Q13421 other isoform, or with tags, fused parts or gaps): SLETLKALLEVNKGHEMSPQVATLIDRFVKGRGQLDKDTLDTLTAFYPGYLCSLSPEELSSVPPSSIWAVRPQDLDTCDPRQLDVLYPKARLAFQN
- assay: ELISA on coated antigen, antibody 100 nM
property name: OD450 (OD450)

[[record]]
binder = "S009-F2.47.1 (antibody, human IgG1, kappa, V domains shown, Human-murine chimeric antibody: murine VH/VL on human IgG1 heavy and kappa light constant regions) VH: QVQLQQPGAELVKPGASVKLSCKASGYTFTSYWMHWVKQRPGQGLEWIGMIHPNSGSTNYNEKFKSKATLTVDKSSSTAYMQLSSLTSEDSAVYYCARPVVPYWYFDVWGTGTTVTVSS VL: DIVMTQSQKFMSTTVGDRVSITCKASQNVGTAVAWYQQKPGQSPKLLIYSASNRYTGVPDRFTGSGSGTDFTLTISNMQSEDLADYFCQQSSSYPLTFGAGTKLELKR"
property_name = "OD450"
recorded_value = 0.06

